Assay: Pharmacokinetic study of 15 LJF components in plasma of RSV-infected mice after oral LJF extract (UHPLC-QQQ MS)
Format: in vivo
Conditions: mouse, in vivo, po, 12 g/kg, RSV mice plasma, oral LJF extract 12.0 g/kg, n = 6; read-out: T1/2 (converted)
observed property: half-life

{"smiles data": "C[C@@H]1O[C@@H](OC[C@H]2O[C@@H](Oc3c(-c4ccc(O)c(O)c4)oc4cc(O)cc(O)c4c3=O)[C@H](O)[C@@H](O)[C@@H]2O)[C@H](O)[C@H](O)[C@H]1O", "result": "2.03 h"}

---

Assay: Pharmacokinetic study of 15 LJF components in plasma of RSV-infected mice after oral LJF extract (UHPLC-QQQ MS)
Assay type: in vivo
Conditions: mouse, in vivo; RSV mice plasma, oral LJF extract 12.0 g/kg, n = 6; read-out: MRT(0–t)
Method: The LJF (12.0 g) were pulverized and soaked in pure water at a solid: liquid ratio of 1:200 and followed by extraction for 30 min. Then, the LJF extract was obtained by filtration, centrifugation (5000 rpm, 10 min) and concentration. […] The MS/MS analysis was performed by Agilent 6470 Triple Quadrupole LC/MS (Santa Clara, CA, USA) with an ESI source. […] The acquired data were processed and analyzed by Mass Hunter Workstation quantitative analysis. […]

{"compound": "O=c1cc(-c2ccc(O)c(O)c2)oc2cc(O[C@@H]3O[C@H](CO)[C@@H](O)[C@H](O)[C@H]3O)cc(O)c12 [Luteoloside]", "units symbol": "h", "MRT last": 1.5}
{"compound": "O=c1c(O[C@@H]2O[C@H](CO)[C@@H](O)[C@H](O)[C@H]2O)c(-c2ccc(O)c(O)c2)oc2cc(O)cc(O)c12 [Isoquercitrin]", "units symbol": "h", "MRT last": 1.5}

---

Assay: Pharmacokinetic study of 15 LJF components in plasma of RSV-infected mice after oral LJF extract (UHPLC-QQQ MS)
Type: in vivo
Conditions: mouse, plasma, po, 12 g/kg, RSV mice plasma, oral LJF extract 12.0 g/kg, n = 6; read-out: MRT(0–t)
# MRT last listing for each entry below

{"molecule": "C[C@@H]1[C@H]2[C@H](O[C@@H]3O[C@H](CO)[C@@H](O)[C@H](O)[C@H]3O)OC=C(C(=O)O)[C@H]2C[C@@H]1O", "MRT last": "2.29 h"}
{"molecule": "O=C(O)/C=C/c1ccc(O)c(O)c1", "MRT last": "5.92 h"}
{"molecule": "O=C(C=Cc1ccc(O)c(O)c1)OC1CC(O)(C(=O)O)CC(O)C1OC(=O)C=Cc1ccc(O)c(O)c1 (stereo not drawn)", "MRT last": "6.39 h"}

---

Experiment: Pharmacokinetic study of 15 LJF components in plasma of RSV-infected mice after oral LJF extract (UHPLC-QQQ MS)
Type: in vivo
Details: mouse, plasma, po, 12 g/kg, RSV mice plasma, oral LJF extract 12.0 g/kg, n = 6; read-out: MRT(0–t)

{"compound": "O=C(C=Cc1ccc(O)c(O)c1)OC1CC(O)(C(=O)O)CC(OC(=O)C=Cc2ccc(O)c(O)c2)C1O (stereo not shown) [Isochlorogenic acid A]", "MRT last / h": 4.64}
{"compound": "C=C[C@H]1[C@H](O[C@@H]2O[C@H](CO)[C@@H](O)[C@H](O)[C@H]2O)OC=C(C(=O)OC)[C@H]1CC(=O)O [Secoxyloganin]", "MRT last / h": 7.19}
{"compound": "O=C(/C=C/c1ccc(O)c(O)c1)O[C@@H]1C[C@](O)(C(=O)O)C[C@@H](O)[C@H]1O [Chlorogenic acid]", "MRT last / h": 2.95}
{"compound": "C=C[C@H]1[C@H](O[C@@H]2O[C@H](CO)[C@@H](O)[C@H](O)[C@H]2O)OC=C2C(=O)OC(O)C[C@H]21 (stereo partly shown) [Secologanic acid]", "MRT last / h": 4.88}
{"compound": "C=C[C@H]1[C@H](O[C@@H]2O[C@H](CO)[C@@H](O)[C@H](O)[C@H]2O)OC=C2C(=O)OCC[C@]21O [Swertiamarin]", "MRT last / h": 7.37}
{"compound": "O=c1cc(-c2ccc(O)c(O)c2)oc2cc(O)cc(O)c12 [Luteolin]", "MRT last / h": 2.12}
{"compound": "O=C(C=Cc1ccc(O)c(O)c1)OC1C(O)CC(O)(C(=O)O)CC1O (stereo not shown) [Cryptochlorogenic acid]", "MRT last / h": 2.79}
